target: FGFR2 (Homo sapiens (Human), UniProt P21802); assay: FGFR2 Biochemical Caliper Assay
Sequence (P21802 22-821): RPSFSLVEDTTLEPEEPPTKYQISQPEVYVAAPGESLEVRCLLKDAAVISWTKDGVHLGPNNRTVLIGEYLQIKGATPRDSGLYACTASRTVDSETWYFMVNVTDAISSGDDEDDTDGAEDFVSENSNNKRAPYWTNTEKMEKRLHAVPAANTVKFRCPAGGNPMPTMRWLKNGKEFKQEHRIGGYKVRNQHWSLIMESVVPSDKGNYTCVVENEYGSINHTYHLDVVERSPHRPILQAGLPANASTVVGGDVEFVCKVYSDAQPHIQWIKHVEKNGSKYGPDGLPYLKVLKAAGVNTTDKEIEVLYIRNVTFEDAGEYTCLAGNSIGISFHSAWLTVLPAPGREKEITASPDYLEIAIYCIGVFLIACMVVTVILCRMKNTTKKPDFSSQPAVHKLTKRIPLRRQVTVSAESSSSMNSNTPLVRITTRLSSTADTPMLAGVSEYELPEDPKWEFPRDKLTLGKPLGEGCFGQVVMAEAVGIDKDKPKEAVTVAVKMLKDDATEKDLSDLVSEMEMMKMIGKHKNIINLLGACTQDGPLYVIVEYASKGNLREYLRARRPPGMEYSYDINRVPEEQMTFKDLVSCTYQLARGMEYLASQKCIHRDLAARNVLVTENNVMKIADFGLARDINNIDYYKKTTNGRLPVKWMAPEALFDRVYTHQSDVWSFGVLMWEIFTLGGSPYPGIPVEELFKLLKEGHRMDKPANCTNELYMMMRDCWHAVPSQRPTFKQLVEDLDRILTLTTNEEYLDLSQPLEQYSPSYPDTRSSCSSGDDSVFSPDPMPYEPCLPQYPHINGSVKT
Reported IC50 by item:

Known results for compounds:
C=C(C)C(=O)Nc1ccc(-c2c(-c3ccc(C(=O)NC4CCC4)cc3)c3c(N)ncnc3n2C)cc1 ... < 100 nM
C=C(C)C(=O)Nc1ccc(-c2c(-c3ccc(Oc4cccc(C#N)n4)cc3)c3c(N)ncnc3n2C)cc1 ... < 100 nM

// lookup IC50 for C=C(C)C(=O)Nc1ccc(-c2c(-c3ccc(CN4CCOCC4=O)cc3)c3c(N)ncnc3n2C)cc1
1000 to 100000 nM

====

target: FGFR2 (Homo sapiens (Human), UniProt P21802); test: FGFR2 Biochemical Caliper Assay
Parameter IC50: see the listing below.

C=C(C)C(=O)Nc1ccc(-c2c(-c3ccc(C(=O)N4CCCC4)cc3)c3c(N)ncnc3n2C)c(C)c1 [Example 406] ... < 0.1 µM
C=C(C)C(=O)Nc1ccc(-c2c(-c3ccc(Oc4nccc(C(F)F)n4)c(F)c3)c3c(N)ncnc3n2C)cc1 [Example 514] ... < 0.1 µM

Please find the next compound below.
For FGFR2 (Homo sapiens (Human), UniProt P21802), provide IC50 of C=C(C)C(=O)Nc1ccc(-c2c(-c3cnc(Oc4cccc(C)n4)cn3)c3c(N)ncnc3n2C)cc1 [Example 480] please.
0.25 to 1 µM

====

molecular target: FGFR2 (Homo sapiens (Human), UniProt P21802); assay: FGFR2 Biochemical Caliper Assay
Recorded IC50 values for a group of compounds are listed next.

C=C(C)C(=O)Nc1ccc(-c2c(-c3ccc(C(=O)NCC4(F)COC4)cc3)c3c(N)ncnc3n2C)cc1 ... < 100 nM
C=C(C)C(=O)Nc1ccc(-c2c(-c3cc(OC)ncc3OC)c3c(N)ncnc3n2C)cc1 ... 1000 to 100000 nM
C=C(C)C(=O)Nc1ccc(-c2c(-c3ccc(Oc4nccc(C)n4)c(F)c3F)c3c(N)ncnc3n2C)cc1 ... < 100 nM
C=C(C)C(=O)Nc1ccc(-c2c(-c3ccc(C(=O)NCC4(OC)CCC4)cc3)c3c(N)ncnc3n2C)cc1 ... < 100 nM
C=C(C)C(=O)Nc1ccc(-c2c(-c3ccc(C(=O)NCC4CCCO4)cc3)c3c(N)ncnc3n2C)cc1 (centres unmarked) ... < 100 nM

// lookup IC50 for C=CC(=O)N1CC=C(c2c(-c3ccc(Oc4cccc(C)n4)c(OC)c3)c3c(N)ncnc3n2C)CC1
< 100 nM

Same read-out for C=CC(=O)N1CCC(c2c(-c3ccc(OCC(F)(F)F)nc3)c3c(N)ncnc3n2C)C1 (centres unmarked) ?
250 to 1000 nM

Further, for C=C(C)C(=O)Nc1ccc(-c2c(-c3ccc(C(=O)N4CCC[C@H]4C#N)cc3)c3c(N)ncnc3n2C)c(F)c1 ?
< 100 nM

====

target: FGFR2 (Homo sapiens (Human), UniProt P21802); test: FGFR2 Biochemical Caliper Assay
pIC50: −log10 of the molar value.
recorded.endpoint: pIC50

Example entries and their recorded answers appear below.
C=C(C)C(=O)N(C)c1ccc(-c2c(-c3ccc(C(=O)NCC(C)(C)OC)cc3)c3c(N)ncnc3n2C)cc1 [Example 421] ... 4.00 to 6.00
C=C(C)C(=O)N1CCC(n2cc(-c3c(-c4ccc(OC)cc4)c4c(N)ncnc4n3C)cn2)CC1 [Example 653] ... 6.00 to 6.60
C=CC(=O)Nc1ccc(-c2c(C3CCN(C)CC3)c3c(N)ncnc3n2C)cc1 [Example 99] ... 4.00 to 6.00
C=C(C)C(=O)Nc1ccc(-c2c(-c3ccc(C(=O)N4CCCC4)cc3)c3c(N)ncnc3n2C)c(C2CC2)c1 [Example 520] ... 6.60 to 7.00
C=C(C)C(=O)Nc1ccc(-c2c(-c3ccc(Oc4nccc(C)n4)c(F)c3)c3c(N)ncnc3n2C)c(CN(C)C)c1 [Example 555] ... > 7.00

Tell me the measured pIC50 of C=C(C)C(=O)Nc1ccc(-c2c(-c3ccc(C(=O)N(C)C4CCC4)cc3)c3c(N)ncnc3n2C)cc1 [Example 227] , please.
6.60 to 7.00

Proceed to C=CC(=O)Nc1ccc(-c2c(-c3ccc(Oc4ccn(C)n4)c(OC)c3)c3c(N)ncnc3n2C)cc1 [Example 145]
> 7.00

Also C=C(C)C(=O)Nc1ccc(-c2c(-c3ccc(N)c(OC(F)(F)F)c3)c3c(N)ncnc3n2C)cc1 [Example 177] ?
4.00 to 6.00

Also check C=C(C)C(=O)Nc1ccc(-c2c(-c3ccc(C(=O)N[C@@H]4CCOC4)cc3)c3c(N)ncnc3n2C)cc1 [Example 300]
> 7.00

Then this compound: C=C(C)C(=O)Nc1ccc(-c2c(-c3ccc(Oc4cccc(C)n4)c(CN(C)C)c3)c3c(N)ncnc3n2C)cc1 [Example 475]
4.00 to 6.00

Then C=C(C)C(=O)Nc1ccc(-c2c(-c3ccc(C(=O)NCC(O)C(F)(F)F)cc3)c3c(N)ncnc3n2C)cc1 (stereo not drawn) [Example 332] ?
> 7.00

Continue with C=C(C)C(=O)Nc1ccc(-c2c(-c3ccc(C(=O)N4CCC[C@@H]4COC)cc3)c3c(N)ncnc3n2C)cc1 [Example 361]
6.00 to 6.60

====

biological target: FGFR2 (Homo sapiens (Human)); assay: Biochemical FGFR2 Caliper assay
Known IC50 of a selection of molecules

Entry under review: C#Cc1cc(C)c(-c2c(C3=CC[C@@H](C(=O)N4CCCC45COC5)CC3)c3c(N)ncnc3n2C)cn1 (single isomer, unassigned) [Example 1239] . Reported IC50?
< 0.1 µM

Also need C=C1C(=O)N(c2ccc(-c3c(-c4ccc(Oc5nccc(C)n5)cc4)c4c(N)ncnc4n3C)cc2)CC1(C)C [Example 1088] , thanks.
1 to 100 µM

Please answer likewise for C=CC(=O)NC(C)(C)c1ccc(-c2c(-c3ccc(Oc4nccc(C)n4)cc3)c3c(N)ncnc3n2C)cc1 [Example 943]
0.25 to 1 µM

====

target: FGFR2 (Homo sapiens (Human), UniProt P21802); test: Biochemical FGFR2 Caliper assay
Property: IC50; scope: individual compounds

Sample records with IC50:
C=CC(=O)N1CC=C(c2ccc(-c3c(-c4ccc(Oc5cccc(C)n5)cc4)c4c(N)ncnc4n3C)cc2)C1 ... 1000 to 100000 nM
C=CC(=O)Nc1ccc(-c2c(C3=CC[C@@H](C(=O)N4CCCC4)CC3)c3c(N)ncnc3n2C)cc1 (single isomer, unassigned) ... < 100 nM

Request the reported IC50 associated with C#Cc1ncc(-c2c(-c3ccc(C(=O)N4CCC[C@H]4C#C)cc3)c3c(N)ncnc3n2C)c(C)c1F (single isomer, unassigned)
< 100 nM

Okay, and C#Cc1ncc(-c2c(-c3ccc(C(=O)N4CCC[C@@H]4C#C)cc3)c3c(N)ncnc3n2C)c(C)c1F (single isomer, unassigned) ?
< 100 nM

Then this compound: C=CC(=O)Nc1ccc(-c2c(-c3ccc(-c4noc(C5CC5)n4)cc3)c3c(N)ncnc3n2C)cc1
< 100 nM

Follow-up entry: C=C(C)C(=O)Nc1ccc(-c2c(-c3sc4ccccc4c3C)c3c(N)ncnc3n2C)cc1
1000 to 100000 nM

One more compound: C=C(C)C(=O)Nc1ccc(-c2c(-c3ccc(-c4cc(=O)[nH][nH]4)cc3)c3c(N)ncnc3n2C)cc1
1000 to 100000 nM

Another compound to check: C=CC(=O)Nc1ccc(-c2c(-c3ccc(C(=O)NC4CCC4)c(OC)c3)c3c(N)ncnc3n2C)cc1
< 100 nM

Check C=CC(=O)Nc1ccc(-c2c(-c3ccc4[nH]ccc4c3)c3c(N)ncnc3n2C)cc1 too.
< 100 nM

Query C#Cc1cc(C)c(-c2c(-c3ccc(Oc4nccc(C)n4)c(F)c3)c3c(C)ncnc3n2C)c(C)n1 next
< 100 nM

Further, for C=C(C)C(=O)Nc1ccc(-c2c(-c3ccc(-c4noc(C)n4)cc3)c3c(N)ncnc3n2C)cc1 ?
1000 to 100000 nM

Now the compound C=C(C)C(=O)Nc1ccc(-c2cn3ncnc(N)c3c2-c2ccc(C(=O)NC3CCC3)cc2)cc1
< 100 nM

Also need CC#Cc1ncc(-c2c(-c3ccc(Oc4nccc(C)n4)cc3)c3c(N)ncnc3n2C)cn1 , thanks.
< 100 nM

Also need C#Cc1cc2c(cn1)-c1c(-c3ccc(Oc4nccc(C)n4)c(F)c3)c3c(N)ncnc3n1[C@@H](C)CO2 , thanks.
1000 to 100000 nM

Please give the result for C=C(C)C(=O)Nc1ccc(-c2c(C3=CC[C@H](C(=O)N4CCC[C@H]4C)CC3)c3c(N)ncnc3n2C)cc1 too.
250 to 1000 nM

What do you get for C=C(C)C(=O)Nc1ccc(-c2c(-c3ccc(-c4noc(C5CC5)n4)cc3)c3c(N)ncnc3n2C)cc1 ?
250 to 1000 nM

Entry to check: C#Cc1ccc(-c2c(C3=CC[C@@H](C(=O)N4CCC[C@H]4C#N)CC3)c3c(N)ncnc3n2C)c(C)n1 (single isomer, unassigned)
< 100 nM

Entry to check: C=C(C)C(=O)Nc1ccc(-c2c(-c3ccc4c(c3)CO[C@@H]4c3cccc(C)n3)c3c(N)ncnc3n2C)cc1 (single isomer, unassigned)
250 to 1000 nM
